This listing pairs variants with measured polymerase ribozyme fitness (log ratio).
B1: TPR t1 (parent)
chain: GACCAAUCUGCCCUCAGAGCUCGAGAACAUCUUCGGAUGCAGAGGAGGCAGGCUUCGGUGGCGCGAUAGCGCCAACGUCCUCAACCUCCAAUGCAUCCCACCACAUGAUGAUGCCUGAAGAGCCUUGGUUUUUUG

# Variants of: B1
# procedure summary: polymerase ribozyme fitness, log enrichment relative to wild type (log ratio); higher = more active; in vitro selection for triplet polymerase activity
quantity measured: polymerase ribozyme fitness (log ratio)

mutant_code="C79A G117C" quantity_measured="polymerase ribozyme fitness (log ratio)" reported=-5.12
mutant_code="U54A U106A C124A U129C" quantity_measured="polymerase ribozyme fitness (log ratio)" reported=0.971
mutant_code="A2U C79U C104A" quantity_measured="polymerase ribozyme fitness (log ratio)" reported=-4.26
mutant_code="C34A C72U G110U" quantity_measured="polymerase ribozyme fitness (log ratio)" reported=-6.56
mutant_code="C15U A95G" quantity_measured="polymerase ribozyme fitness (log ratio)" reported=-1.71
mutant_code="C56A G127U U129A U130C" quantity_measured="polymerase ribozyme fitness (log ratio)" reported=-1.7
mutant_code="C76G C85A U132C" quantity_measured="polymerase ribozyme fitness (log ratio)" reported=-0.689
mutant_code="G60U A121U C124A U131G" quantity_measured="polymerase ribozyme fitness (log ratio)" reported=-3.49
mutant_code="C31U C86U" quantity_measured="polymerase ribozyme fitness (log ratio)" reported=-4.08
mutant_code="G63U C70U" quantity_measured="polymerase ribozyme fitness (log ratio)" reported=-0.91
mutant_code="G23A C40A" quantity_measured="polymerase ribozyme fitness (log ratio)" reported=-4.86
mutant_code="C11U G39U C102A C104U A111G" quantity_measured="polymerase ribozyme fitness (log ratio)" reported=-1.71
mutant_code="G58C G60C" quantity_measured="polymerase ribozyme fitness (log ratio)" reported=-0.636
mutant_code="C20G C94U C114A G122U U125G" quantity_measured="polymerase ribozyme fitness (log ratio)" reported=-6.15
mutant_code="A29G C76A G120U" quantity_measured="polymerase ribozyme fitness (log ratio)" reported=-1.97
mutant_code="G45U A84G U96G C101G" quantity_measured="polymerase ribozyme fitness (log ratio)" reported=-4.84
mutant_code="C34U A74U" quantity_measured="polymerase ribozyme fitness (log ratio)" reported=-4.36
mutant_code="G60U G61A U106C G128A U130A" quantity_measured="polymerase ribozyme fitness (log ratio)" reported=-4.75
mutant_code="A41C U106G C114U U130A" quantity_measured="polymerase ribozyme fitness (log ratio)" reported=-4.41
mutant_code="G63U U112A G120A" quantity_measured="polymerase ribozyme fitness (log ratio)" reported=-1.02
mutant_code="C8A A26U C115U" quantity_measured="polymerase ribozyme fitness (log ratio)" reported=-5.1
mutant_code="C99U C101U" quantity_measured="polymerase ribozyme fitness (log ratio)" reported=-2.29
